biological target: Cytochrome P450 2D6 (Homo sapiens); test: Cytochrome panel assay with activity outcomes; settings: recombinant CYP, pro-luciferin dealkylation, luminescence, p450-cyp2d6; series mostly up to 57.1 µM
Screen size: about 16,000 compounds; about 2,600 (16%) were called active. Not shown: some 20% with an inconclusive outcome. The call rests on the fitted dose curve; in most records, active means well fitted curve in the direction sought with a large enough effect; inconclusive means small, poorly fitted or top-dose-only effect, or effect the other way; inactive means no such curve, though single readings can be large or run the other way. These entries were drawn from the full list.
Outcomes: active, inactive

[
  {
    "smiles-representation": "CCc1nnc(NC(=O)C2CCN(C(=O)NC3CCCCC3)CC2)s1",
    "class-name": "inactive"
  },
  {
    "smiles-representation": "O=C(C1CCN(S(=O)(=O)N2CCOCC2)CC1)N1CCN(Cc2ccccc2)CC1",
    "class-name": "inactive"
  },
  {
    "smiles-representation": "Cc1cc(C)c(S(=O)(=O)NNC(=O)C2CCN(Cc3ccccc3)CC2)c(C)c1",
    "class-name": "active"
  },
  {
    "smiles-representation": "O=C(NCCCN1CCN(Cc2ccccc2)CC1)C1CCN(S(=O)(=O)N2CCCC2)CC1",
    "class-name": "active"
  },
  {
    "smiles-representation": "O=C(NCc1ccc(F)cc1)C1CCN(S(=O)(=O)N2CCCCC2)CC1",
    "class-name": "inactive"
  },
  {
    "smiles-representation": "Cc1ccc(NC(=O)CCC(=O)NNS(=O)(=O)c2ccccc2)c(C)c1",
    "class-name": "inactive"
  },
  {
    "smiles-representation": "CCS(=O)(=O)N1CCC(C(=O)NCCCN2CCCC2)CC1",
    "class-name": "inactive"
  },
  {
    "smiles-representation": "O=C(NCCCN1CCc2ccccc2C1)C1CCN(S(=O)(=O)N2CCCC2)CC1",
    "class-name": "active"
  },
  {
    "smiles-representation": "N/C(=N\\OC(=O)Cc1ccc(-c2ccccc2)cc1)c1cccc([N+](=O)[O-])c1",
    "class-name": "inactive"
  },
  {
    "smiles-representation": "O=C(NCCCN1CCC(Cc2ccccc2)CC1)C1CCN(S(=O)(=O)N2CCOCC2)CC1",
    "class-name": "active"
  }
]

###

target: Cytochrome P450 2D6 (Homo sapiens); test: Cytochrome panel assay with activity outcomes; details: recombinant CYP, pro-luciferin dealkylation, luminescence, p450-cyp2d6; series mostly up to 57.1 µM; on activity, negative = inhibition: on the % scale 0 is the no-effect control and ±100 the full control effect
The campaign covered roughly 16,000 compounds. About 2,600 (16%) were called active. Inconclusive results (about 20%) are left out. Only a sample is shown.
We begin with a simple list: items and their reported activity, negative = inhibition.

[
  {
    "smiles-representation": "Nc1nc(N)c2nn(-c3ccc(C(=O)O)cc3)nc2n1",
    "activity, negative = inhibition": "-6.74% [at 11.4 µM] (inactive)"
  },
  {
    "smiles-representation": "O=S(=O)(O)CCCc1cccc2ccccc12",
    "activity, negative = inhibition": "7.84% [at 11.4 µM] (inactive)"
  },
  {
    "smiles-representation": "CC(C)=C[C@H]1[C@@H](COC(=O)c2ccccc2Cl)C1(C)C",
    "activity, negative = inhibition": "-3.97% [at 11.4 µM] (inactive)"
  },
  {
    "smiles-representation": "C[C@@H]1NC(=O)C/C=C\\[C@@H](C)[C@@H]2C=C[C@H](O)[C@@H](COC(=O)[C@H](C)NC(=O)C/C=C\\[C@@H](C)[C@@H]3C=C[C@H](O)[C@@H](COC1=O)O3)O2",
    "activity, negative = inhibition": "9.45% [at 11.4 µM] (inactive)"
  },
  {
    "smiles-representation": "OCCn1cnc2c(SCc3ccccc3)ncnc21",
    "activity, negative = inhibition": "-0.741% [at 11.4 µM] (inactive)"
  },
  {
    "smiles-representation": "C#CCCCO/N=C1/C[C@@H](O)[C@@H](O)[C@@H]2[C@@H]3C(=O)N(CC)C(=O)[C@H]3CC[C@H]12",
    "activity, negative = inhibition": "14.7% [at 11.4 µM] (inactive)"
  },
  {
    "smiles-representation": "NCCSCCC(=O)O",
    "activity, negative = inhibition": "-2.86% [at 11.4 µM] (inactive)"
  },
  {
    "smiles-representation": "N[C@@H](Cc1nn[nH]n1)C(=O)O",
    "activity, negative = inhibition": "7.47% [at 11.4 µM] (inactive)"
  },
  {
    "smiles-representation": "O=C1Nc2ccccc2C1=Nc1ccc(S(=O)(=O)Nc2nccs2)cc1",
    "activity, negative = inhibition": "16.3% [at 11.4 µM] (inactive)"
  },
  {
    "smiles-representation": "O=C(N/N=C1/C[C@@H](O)[C@@H](O)[C@@H]2[C@@H]3C(=O)N(Cc4ccc5c(c4)OCO5)C(=O)[C@H]3CC[C@H]12)OCc1ccccc1",
    "activity, negative = inhibition": "-16.9% [at 11.4 µM] (inactive)"
  },
  {
    "smiles-representation": "Cn1c(=O)c2[nH]c(SCCN3CCOCC3)nc2n(C)c1=S",
    "activity, negative = inhibition": "0.168% [at 11.4 µM] (inactive)"
  },
  {
    "smiles-representation": "CC(C)(C)COS(=O)OCC(C)(C)C",
    "activity, negative = inhibition": "-1.05% [at 11.4 µM] (inactive)"
  },
  {
    "smiles-representation": "O=C(C[N+]1(c2ccccc2)CCOCC1)c1ccccc1",
    "activity, negative = inhibition": "-6.92% [at 11.4 µM] (inactive)"
  },
  {
    "smiles-representation": "CC(C)(N)C(=O)N[C@@H]1C(=O)N2[C@@H]1SC(C)(C)[C@H]2C(=O)O",
    "activity, negative = inhibition": "5.23% [at 11.4 µM] (inactive)"
  },
  {
    "smiles-representation": "CCn1c2ccccc2c2nnc(NCCCO)nc21",
    "activity, negative = inhibition": "3.89% [at 11.4 µM] (inactive)"
  },
  {
    "smiles-representation": "CCC(C)(C)c1ccc(Oc2cccc(C(=O)O)c2)cc1",
    "activity, negative = inhibition": "13.3% [at 11.4 µM] (inactive)"
  },
  {
    "smiles-representation": "COc1ccc(COC(=O)N/N=C2/C[C@@H](O)[C@@H](O)[C@@H]3[C@@H]4C(=O)N([C@@H](C)c5ccccc5)C(=O)[C@H]4CC[C@H]23)cc1",
    "activity, negative = inhibition": "-3.9% [at 11.4 µM] (inactive)"
  },
  {
    "smiles-representation": "O=C(O)CNCCc1ccccc1",
    "activity, negative = inhibition": "3.94% [at 11.4 µM] (inactive)"
  },
  {
    "smiles-representation": "Cc1c(Cl)cccc1NC(=O)C[C@H]1Sc2ccccc2NC1=O",
    "activity, negative = inhibition": "-12% [at 11.4 µM] (inactive)"
  },
  {
    "smiles-representation": "Clc1ccc(Cl)c(Nc2ccnc(SCc3ccccc3)n2)c1",
    "activity, negative = inhibition": "-0.772% [at 11.4 µM] (inactive)"
  },
  {
    "smiles-representation": "N[C@@H](CSC(=O)c1ccccc1)C(=O)O",
    "activity, negative = inhibition": "9.96% [at 11.4 µM] (inactive)"
  },
  {
    "smiles-representation": "C/C(=N/O)[C@@H]1C[C@H](CC(=O)O)C1(C)C",
    "activity, negative = inhibition": "-1.22% [at 11.4 µM] (inactive)"
  }
]

###

target: Cytochrome P450 2D6 (Homo sapiens) (UniProt P10635); assay: Cytochrome panel assay with activity outcomes; conditions: recombinant CYP, pro-luciferin dealkylation, luminescence, p450-cyp2d6; series mostly up to 57.1 µM
Sequence (P10635 whole entry, looked up): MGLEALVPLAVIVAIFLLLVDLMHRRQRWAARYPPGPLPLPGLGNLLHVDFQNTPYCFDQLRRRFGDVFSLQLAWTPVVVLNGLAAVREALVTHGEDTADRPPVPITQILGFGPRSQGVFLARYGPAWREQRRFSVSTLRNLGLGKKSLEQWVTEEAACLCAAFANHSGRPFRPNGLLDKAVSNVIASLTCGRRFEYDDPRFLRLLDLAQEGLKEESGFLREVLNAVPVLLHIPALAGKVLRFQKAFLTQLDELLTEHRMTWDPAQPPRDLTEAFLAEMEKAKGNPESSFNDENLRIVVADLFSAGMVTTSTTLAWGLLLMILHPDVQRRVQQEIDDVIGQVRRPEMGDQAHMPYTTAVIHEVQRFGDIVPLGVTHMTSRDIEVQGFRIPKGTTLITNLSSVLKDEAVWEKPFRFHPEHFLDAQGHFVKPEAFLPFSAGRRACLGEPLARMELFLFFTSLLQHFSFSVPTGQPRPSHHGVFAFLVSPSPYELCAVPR
In all, about 16,000 compounds went through this assay and about 2,600 (16%) were called active. Another 20% or so got no clear call; they are omitted. The list is a sample of the results.
assay-metric: outcome

[
  {
    "molecule": "CCc1ccc(NC(=O)Cn2nc(C(F)(F)F)c3c2CCC3)cc1",
    "target-system": "Cytochrome P450 2D6 (Homo sapiens) (UniProt P10635)",
    "assay-metric": "outcome",
    "assay-value": "inactive"
  },
  {
    "molecule": "Cn1c(CCC(=O)Nc2ccc(N3CCOCC3)cc2)nc(=O)c2ccccc21",
    "target-system": "Cytochrome P450 2D6 (Homo sapiens) (UniProt P10635)",
    "assay-metric": "outcome",
    "assay-value": "inactive"
  },
  {
    "molecule": "Cc1ncsc1C(=O)N1N=C2/C(=C/c3ccccc3)CCCC2C1c1ccccc1 (stereo unspecified)",
    "target-system": "Cytochrome P450 2D6 (Homo sapiens) (UniProt P10635)",
    "assay-metric": "outcome",
    "assay-value": "inactive"
  },
  {
    "molecule": "Nc1ccc(-c2nc3c(Cl)c(N)ccc3[nH]2)cc1",
    "target-system": "Cytochrome P450 2D6 (Homo sapiens) (UniProt P10635)",
    "assay-metric": "outcome",
    "assay-value": "inactive"
  },
  {
    "molecule": "CC(C)(C)C(=O)NC(=C(Cl)Cl)P(=O)(O)O",
    "target-system": "Cytochrome P450 2D6 (Homo sapiens) (UniProt P10635)",
    "assay-metric": "outcome",
    "assay-value": "inactive"
  },
  {
    "molecule": "COc1ccc(N=C2S/C(=C\\c3ccc(C)s3)C(=O)N2CC(C)C)cc1",
    "target-system": "Cytochrome P450 2D6 (Homo sapiens) (UniProt P10635)",
    "assay-metric": "outcome",
    "assay-value": "inactive"
  }
]
